- study-target: COX-2 (purified PGHS-2) (Ovis aries)
- Construct: purified PGHS-2 (COX-2) from sheep placental cotyledones; purchased Cayman Chemical Company, Ann Arbor, Mich., USA; host or cells: sheep placental cotyledons (tissue-purified)
- Sequence (P79208 17-603): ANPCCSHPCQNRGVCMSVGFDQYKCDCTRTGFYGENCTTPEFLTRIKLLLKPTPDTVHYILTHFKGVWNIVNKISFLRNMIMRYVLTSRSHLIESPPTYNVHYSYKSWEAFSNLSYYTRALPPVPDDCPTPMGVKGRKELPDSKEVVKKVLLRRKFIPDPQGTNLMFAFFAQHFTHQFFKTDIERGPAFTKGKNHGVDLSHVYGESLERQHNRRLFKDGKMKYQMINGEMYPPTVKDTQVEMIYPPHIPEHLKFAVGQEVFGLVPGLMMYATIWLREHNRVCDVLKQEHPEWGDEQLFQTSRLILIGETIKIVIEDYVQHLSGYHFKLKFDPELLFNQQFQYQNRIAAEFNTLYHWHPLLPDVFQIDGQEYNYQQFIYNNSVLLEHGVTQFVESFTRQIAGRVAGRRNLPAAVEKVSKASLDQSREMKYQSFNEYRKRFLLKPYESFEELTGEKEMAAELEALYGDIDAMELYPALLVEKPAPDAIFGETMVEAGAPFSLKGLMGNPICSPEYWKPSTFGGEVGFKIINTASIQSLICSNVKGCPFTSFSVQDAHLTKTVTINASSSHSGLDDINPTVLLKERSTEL
- protocol-description: COX-2 assay, purified enzyme, PGE2 EIA
- Format: biochemical, sheep

compound: C=CC(C)(O)CCC1C(=C)CC(O)C2C(C)(C)CCCC12C (stereo not shown)
IC50 COX-2: Inactive

compound: CC(C)c1ccc2c(c1)CCC1C(C)(C(=O)O)CCCC21C (stereo not shown) [Dehydroabietic acid]
IC50 COX-2: Inactive

compound: CC(C)c1ccc2c(c1)CCC1C(C)(CO)CCCC21C (stereo not shown) [Dehydroabietinol]
IC50 COX-2: Inactive
